# Test system: Rhipicephalus microplus
# experiment notes: Rhipicephalus (Boophilus) microplus injection test (BOOPMI Inj)
# Type: in vivo
# experimental context: 168 h, application rate 4 μg/tick, injection into adult engorged female ticks, egg deposition after 7 days, read-out: activity (efficacy: 100% means all eggs are infertile)

{"molecule": "Cc1nc([C@H](C)NC(=O)c2cc(Br)cc(OC(F)(F)F)c2)n(-c2cc(C#N)ccn2)n1 [II-106]", "units of measure": "%", "pest or weed control at 0.004 mg": 100}
{"molecule": "C[C@H](NC(=O)c1cc(Cl)cc(C(F)F)c1)c1nc(C2CC2)nn1-c1ccc(C#N)cn1 [I-42]", "units of measure": "%", "pest or weed control at 0.004 mg": 100}
{"molecule": "C[C@H](NC(=O)c1cc(C(F)(F)F)cc(C(F)(F)F)c1)c1ncnn1-c1ncc(Cl)s1 [II-40]", "units of measure": "%", "pest or weed control at 0.004 mg": 100}
{"molecule": "CC(C)c1nc([C@H](C)NC(=O)c2cc(Br)cc(Br)c2)n(-c2ccc(C#N)cn2)n1 [I-24]", "units of measure": "%", "pest or weed control at 0.004 mg": 100}
{"molecule": "C[C@H](NC(=O)c1cc(Cl)cc(C(F)(F)F)c1)c1ncnn1-c1ccc(N(C)C(=O)C2CC2)cn1 [II-79]", "units of measure": "%", "pest or weed control at 0.004 mg": 100}
{"molecule": "COc1nc([C@H](C)NC(=O)c2cc(Cl)cc(Cl)c2)n(-c2ccc(C#N)cn2)n1 [I-15]", "units of measure": "%", "pest or weed control at 0.004 mg": 100}
{"molecule": "C[C@H](NC(=O)c1cc(C#N)cc(C(F)(F)F)c1)c1nc(C2CC2)nn1-c1ccc(C#N)cn1 [I-44]", "units of measure": "%", "pest or weed control at 0.004 mg": 100}
{"molecule": "CC(C)N(C(=O)c1ccc(-n2ncnc2[C@H](C)NC(=O)c2cc(Cl)cc(C(F)(F)F)c2)nc1)C1CC1 [II-29]", "units of measure": "%", "pest or weed control at 0.004 mg": 100}
{"molecule": "C[C@H](NC(=O)c1cc(I)cc(C(F)(F)F)c1)c1ncnn1-c1ccc(C#N)cn1 [II-46]", "units of measure": "%", "pest or weed control at 0.004 mg": 100}
{"molecule": "C[C@H](NC(=O)c1cc(C(F)(F)F)cc(C(F)(F)F)c1)c1ncnn1-c1ccc(S(C)(=O)=O)cn1 [II-44]", "units of measure": "%", "pest or weed control at 0.004 mg": 100}
{"molecule": "Cc1nc([C@H](C)NC(=O)c2cc(C#N)cc(C(F)(F)F)c2)n(-c2ccc(C#N)cn2)n1 [II-53]", "units of measure": "%", "pest or weed control at 0.004 mg": 100}
{"molecule": "C[C@H](NC(=O)c1cc(Cl)cc(C(F)(F)C(F)(F)F)c1)c1ncnn1-c1nccs1 [II-66]", "units of measure": "%", "pest or weed control at 0.004 mg": 100}
{"molecule": "C[C@H](NC(=O)c1cc(Cl)cc(OC(F)(F)F)c1)c1ncnn1-c1cc(NC(=O)C2CC2)ccn1 [II-25]", "units of measure": "%", "pest or weed control at 0.004 mg": 100}
{"molecule": "CC(C)c1nc([C@H](C)NC(=O)c2cncc(C(F)(F)F)c2)n(-c2ccc(C#N)cn2)n1 [I-30]", "units of measure": "%", "pest or weed control at 0.004 mg": 100}
{"molecule": "CCc1nc([C@H](C)NC(=O)c2cc(Cl)cc(Cl)c2)n(-c2ccc(C#N)cn2)n1 [I-2]", "units of measure": "%", "pest or weed control at 0.004 mg": 100}
{"molecule": "CC(C)Oc1nc([C@H](C)NC(=O)c2cc(Cl)cc(C(F)(F)F)c2)n(-c2ccc(C#N)cn2)n1 [I-16]", "units of measure": "%", "pest or weed control at 0.004 mg": 100}
{"molecule": "Cc1nc([C@H](C)NC(=O)c2cc(Br)cc(C#N)c2)n(-c2ccc(C#N)cn2)n1 [II-54]", "units of measure": "%", "pest or weed control at 0.004 mg": 100}
{"molecule": "C[C@H](NC(=O)c1cc(Cl)cc(SC(F)F)c1)c1nc(C2CC2)nn1-c1ccc(C#N)cn1 [I-46]", "units of measure": "%", "pest or weed control at 0.004 mg": 100}
{"molecule": "C[C@H](NC(=O)c1cc(Cl)cc(C(F)(F)F)c1)c1nc(C2CC2)nn1-c1ccc(C#N)cn1 [I-6]", "units of measure": "%", "pest or weed control at 0.004 mg": 100}
{"molecule": "CC(NC(=O)c1cncc(C(F)(F)F)c1)c1nc(Cl)nn1-c1ccc(C#N)cn1 (centres unmarked) [I-59]", "units of measure": "%", "pest or weed control at 0.004 mg": 80}
{"molecule": "CC(C)c1nc([C@H](C)NC(=O)c2cccc(C(F)(F)F)n2)n(-c2ccc(C#N)cn2)n1 [I-22]", "units of measure": "%", "pest or weed control at 0.004 mg": 80}
{"molecule": "C[C@H](NC(=O)c1cc(C(F)(F)F)cc(C(F)(F)F)c1)c1ncnn1-c1cc(C(=O)NCC#N)ccn1 [II-89]", "units of measure": "%", "pest or weed control at 0.004 mg": 80}
{"molecule": "C[C@H](NC(=O)c1cc(Cl)cc(C(F)(F)F)c1)c1ncnn1-c1cc(N)ccn1 [II-28]", "units of measure": "%", "pest or weed control at 0.004 mg": 100}
{"molecule": "C[C@H](NC(=O)c1cc(OC(F)F)cc(OC(F)F)c1)c1nc(C2CC2)nn1-c1ccc(C#N)cn1 [I-47]", "units of measure": "%", "pest or weed control at 0.004 mg": 100}
{"molecule": "CC(=O)Nc1ccnc(-n2ncnc2[C@H](C)NC(=O)c2cc(Cl)cc(OC(F)(F)F)c2)c1 [II-22]", "units of measure": "%", "pest or weed control at 0.004 mg": 100}
{"molecule": "C[C@H](NC(=O)c1cc(Cl)cc(SC(F)(F)F)c1)c1nc(C2CC2)nn1-c1ccc(C#N)cn1 [I-45]", "units of measure": "%", "pest or weed control at 0.004 mg": 100}

All values here come from patent US20220274947A1.
